molecular target: HA of ca A/Texas/36/91 (H1N1) virus (influenza A virus); assay: cell-based or functional assay
Experimental endpoint: Neutralization IC50, H1-TX91 (µg/mL)
Answer format: numeric, µg/mL implied, no suffix.

Inquiry: Requested field: Neutralization IC50, H1-TX91. Item: Antibody 11 (antibody, V domains shown) VH: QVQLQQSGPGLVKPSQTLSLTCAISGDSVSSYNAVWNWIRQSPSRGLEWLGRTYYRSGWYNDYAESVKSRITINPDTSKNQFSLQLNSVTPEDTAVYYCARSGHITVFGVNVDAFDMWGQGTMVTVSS VL: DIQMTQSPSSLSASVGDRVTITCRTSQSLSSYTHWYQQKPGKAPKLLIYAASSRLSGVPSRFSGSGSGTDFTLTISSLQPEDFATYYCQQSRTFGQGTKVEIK
Reply text: 0.11

Inquiry: Now give it for Antibody 12 (antibody, V domains shown) VH: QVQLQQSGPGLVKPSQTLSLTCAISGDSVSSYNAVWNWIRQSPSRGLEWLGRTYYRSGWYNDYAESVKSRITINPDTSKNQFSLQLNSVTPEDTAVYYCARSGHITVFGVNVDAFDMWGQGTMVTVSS VL: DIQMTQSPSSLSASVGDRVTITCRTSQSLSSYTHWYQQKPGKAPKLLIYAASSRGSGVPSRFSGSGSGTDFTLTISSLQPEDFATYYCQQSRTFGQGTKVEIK too.
Reply text: 0.12
